Reported values of phosphorylation enrichment for individual entries
system tested: EPHB2 (UniProt P29323)
Sequence (P29323 whole entry, looked up): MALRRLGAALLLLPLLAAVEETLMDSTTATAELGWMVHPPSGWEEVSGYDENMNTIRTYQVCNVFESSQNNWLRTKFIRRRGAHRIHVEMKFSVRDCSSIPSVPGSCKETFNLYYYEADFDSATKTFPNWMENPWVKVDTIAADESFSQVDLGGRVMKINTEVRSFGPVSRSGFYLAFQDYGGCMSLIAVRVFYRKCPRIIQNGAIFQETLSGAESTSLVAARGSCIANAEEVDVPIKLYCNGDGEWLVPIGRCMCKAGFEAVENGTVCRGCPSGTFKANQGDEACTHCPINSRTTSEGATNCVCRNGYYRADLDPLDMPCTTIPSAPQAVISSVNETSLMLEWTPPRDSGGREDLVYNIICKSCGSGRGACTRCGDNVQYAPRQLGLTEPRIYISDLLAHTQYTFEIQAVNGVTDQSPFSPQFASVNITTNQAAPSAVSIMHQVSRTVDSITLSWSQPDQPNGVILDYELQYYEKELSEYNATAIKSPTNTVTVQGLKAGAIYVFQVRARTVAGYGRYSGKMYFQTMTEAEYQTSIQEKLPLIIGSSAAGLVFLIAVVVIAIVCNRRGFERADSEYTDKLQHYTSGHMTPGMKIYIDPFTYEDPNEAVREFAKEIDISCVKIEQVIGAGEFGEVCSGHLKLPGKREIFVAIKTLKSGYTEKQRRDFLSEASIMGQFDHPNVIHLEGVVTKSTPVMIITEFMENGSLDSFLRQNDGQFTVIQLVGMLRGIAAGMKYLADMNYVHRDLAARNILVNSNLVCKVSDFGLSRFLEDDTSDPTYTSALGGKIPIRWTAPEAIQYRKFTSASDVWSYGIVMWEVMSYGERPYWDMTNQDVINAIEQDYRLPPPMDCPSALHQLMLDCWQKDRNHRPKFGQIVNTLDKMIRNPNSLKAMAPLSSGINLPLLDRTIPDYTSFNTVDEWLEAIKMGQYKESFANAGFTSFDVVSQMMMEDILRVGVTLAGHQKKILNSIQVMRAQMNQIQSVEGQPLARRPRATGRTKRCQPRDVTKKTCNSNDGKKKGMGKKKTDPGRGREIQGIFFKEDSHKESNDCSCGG
measurement description: phosphorylation enrichment, bacterial display (enrichment ratio); higher = better substrate or ligand; peptides without Tyr show the background;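 further: 11-residue human phosphosite peptides and single-mutation variants displayed on the E. coli surface, counted by deep sequencing, each peptide's frequency after selection divided by its frequency in the unselected input library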;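 further: frequency after pTyr selection over input frequency; kinase dosed for 20-30% of maximal phosphorylation in three min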
API doc: respond with a numeric literal and nothing else, no unit.

Recorded results for 8 sequences are shown here.
GRTGHYLCNAC [GATA1_Y223_D218G] :: 0.287
GSSKIYFLHPD [TLR5_Y108] :: 0.624
HPHECYAKVFD [ALB_Y394_D389H] :: 0.441
VTVLDYDKTGK [SYT1_Y365_I368T] :: 0.46
RVILRYVNPGN [LAMA3_Y791_T796N] :: 0.711
VATRWYWSPEL [CDKL5_Y177_R178W] :: 3.81
DTSKMYIPHTD [EXPH5_Y782] :: 0.405
EKEQNYDLTQV [ECD_Y448_E452Q] :: 0.612

Okay, next one:
Endpoint output: phosphorylation enrichment of NTADYYDLYGG [PTPN11_Y63_G60A] . Value?
14.7
